src = patent US6066633A

tgt: MMP-2 (72 kDa gelatinase A) (Homo sapiens)
Sequence (P08253 110-660): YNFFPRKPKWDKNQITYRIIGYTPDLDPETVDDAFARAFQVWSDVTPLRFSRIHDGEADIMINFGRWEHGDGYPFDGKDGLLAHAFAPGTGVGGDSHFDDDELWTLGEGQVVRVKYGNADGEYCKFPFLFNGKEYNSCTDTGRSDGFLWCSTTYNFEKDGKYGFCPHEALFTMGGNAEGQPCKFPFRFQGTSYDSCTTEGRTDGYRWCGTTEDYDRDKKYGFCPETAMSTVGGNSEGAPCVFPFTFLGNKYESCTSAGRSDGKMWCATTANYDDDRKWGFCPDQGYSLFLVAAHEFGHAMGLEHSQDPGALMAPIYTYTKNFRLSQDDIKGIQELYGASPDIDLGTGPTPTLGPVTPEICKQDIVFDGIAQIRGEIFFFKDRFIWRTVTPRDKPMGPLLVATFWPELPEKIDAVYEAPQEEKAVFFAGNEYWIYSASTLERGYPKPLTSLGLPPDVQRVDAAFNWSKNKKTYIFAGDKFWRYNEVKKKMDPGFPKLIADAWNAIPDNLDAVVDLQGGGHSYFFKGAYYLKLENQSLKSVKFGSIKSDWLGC
Counter-ions that a name gives are not always drawn.
value_type: pIC50
Units for pIC50: none; it is -log10 of a concentration expressed in mol/L.

Please tell me: pIC50 of COc1ccc(S(=O)(=O)N2Cc3c(c4ccccc4n3CC(=O)NCCSCCN3CCOCC3)C[C@@H]2C(=O)NO)cc1 [Example 11, Hydrochloride] , system MMP-2 (72 kDa gelatinase A) (Homo sapiens)? 8.80

====

Counter-ions that a name gives are not always drawn.
value_type: pIC50
Units for pIC50: none; it is -log10 of a concentration expressed in mol/L.

Please tell me: pIC50 of COc1ccc(S(=O)(=O)N2Cc3c(c4ccccc4n3CC(=O)NCCSCCN3CCOCC3)C[C@@H]2C(=O)NO)cc1 [Example 11, Hydrochloride] , system MMP-3 (stromelysin 1) (Homo sapiens, UniProt P08254)? 8.51

====

tgt: MMP-9 (92 kDa gelatinase B) (Homo sapiens, UniProt P14780)
Sequence (P14780 107-707 limits assumed): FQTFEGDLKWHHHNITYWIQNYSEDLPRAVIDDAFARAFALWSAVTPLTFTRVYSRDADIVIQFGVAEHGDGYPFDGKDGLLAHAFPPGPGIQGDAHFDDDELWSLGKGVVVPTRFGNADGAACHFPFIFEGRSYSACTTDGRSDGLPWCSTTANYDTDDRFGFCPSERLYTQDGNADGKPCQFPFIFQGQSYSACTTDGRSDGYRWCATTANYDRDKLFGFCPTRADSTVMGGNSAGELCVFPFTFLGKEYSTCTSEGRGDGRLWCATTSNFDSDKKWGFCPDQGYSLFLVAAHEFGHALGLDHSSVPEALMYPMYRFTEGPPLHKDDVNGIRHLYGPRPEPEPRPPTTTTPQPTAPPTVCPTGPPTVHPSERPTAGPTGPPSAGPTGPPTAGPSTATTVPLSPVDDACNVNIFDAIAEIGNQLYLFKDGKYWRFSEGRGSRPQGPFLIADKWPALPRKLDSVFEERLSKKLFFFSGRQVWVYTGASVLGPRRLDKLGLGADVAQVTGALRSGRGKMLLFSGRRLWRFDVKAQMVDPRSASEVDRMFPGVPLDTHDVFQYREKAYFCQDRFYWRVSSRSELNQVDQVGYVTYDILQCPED
Structures can show the parent of a compound that is named as a salt.
value_type: pIC50
Units for pIC50: none; it is -log10 of a concentration expressed in mol/L.

Suppose we examine the compound COc1ccc(S(=O)(=O)N2Cc3c(c4ccccc4n3CC(=O)NCCSCCN3CCOCC3)C[C@@H]2C(=O)NO)cc1 [Example 11, Hydrochloride] ; what pIC50 value has been reported? 10.00
